Values were extracted from paper PMC10786891.

Target: T1, EsCas13d, nuclease-dead (Eubacterium siraeum, UniProt B0MS50, R295A;H300A;R849A;H854A)
T1 sequence: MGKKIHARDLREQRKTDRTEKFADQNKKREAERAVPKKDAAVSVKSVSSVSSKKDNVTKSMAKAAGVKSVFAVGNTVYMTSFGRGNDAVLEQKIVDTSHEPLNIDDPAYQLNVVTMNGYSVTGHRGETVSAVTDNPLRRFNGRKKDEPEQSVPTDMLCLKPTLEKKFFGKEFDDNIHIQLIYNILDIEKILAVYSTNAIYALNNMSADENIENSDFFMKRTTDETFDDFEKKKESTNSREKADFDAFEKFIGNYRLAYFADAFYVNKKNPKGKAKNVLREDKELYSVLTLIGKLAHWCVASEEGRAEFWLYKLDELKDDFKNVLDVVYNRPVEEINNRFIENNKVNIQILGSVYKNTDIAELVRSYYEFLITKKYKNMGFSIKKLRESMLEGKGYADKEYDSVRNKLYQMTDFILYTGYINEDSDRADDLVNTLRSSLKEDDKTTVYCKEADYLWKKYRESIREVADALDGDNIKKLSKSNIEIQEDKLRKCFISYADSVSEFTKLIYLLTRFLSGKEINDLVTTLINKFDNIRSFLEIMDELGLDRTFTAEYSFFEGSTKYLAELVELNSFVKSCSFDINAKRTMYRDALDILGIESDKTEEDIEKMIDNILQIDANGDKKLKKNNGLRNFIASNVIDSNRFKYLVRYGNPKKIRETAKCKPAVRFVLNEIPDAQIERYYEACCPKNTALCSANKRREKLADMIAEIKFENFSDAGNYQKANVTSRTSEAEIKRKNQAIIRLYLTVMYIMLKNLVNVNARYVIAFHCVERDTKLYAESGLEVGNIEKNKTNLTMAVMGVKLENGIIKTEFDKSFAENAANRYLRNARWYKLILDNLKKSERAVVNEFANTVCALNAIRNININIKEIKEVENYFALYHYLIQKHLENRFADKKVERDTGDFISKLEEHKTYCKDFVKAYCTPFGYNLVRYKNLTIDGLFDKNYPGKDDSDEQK
Assay: crRNA (strand 1, pre-loaded); Mg2+; 40 mM Tris-HCl pH 7.5, 150 mM NaCl, 6 mM MgCl2, 1 mM DTT, 0.1% Tween-20, 0.2 mg/ml BSA; 25 C; 10 min per concentration, then washed
Details: tags: His6-TwinStrep-SUMO cleaved; N-terminal SNAP kept (SNAP-Surface 488); label: 3' end held by stalled T7 RNA polymerase
endpoint name: pKd
The scale used: pKd is minus the common logarithm of the concentration in molar units.

Examples with answers:
| binder | pKd |
| --- | --- |
| target 1 MT 5'PFS GCA 3'PFS CUU (mixed) RNA 1: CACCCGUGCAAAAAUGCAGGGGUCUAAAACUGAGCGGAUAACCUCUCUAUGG RNA 2: GGGAAUGGAUCCACAUCUACGAAUUCGCACCAUAGAGAGGUUAUCCGCUCACUUAGAUCGGAAGAGCACACGU | 7.93 |
| target 1 MT 5'PFS ACA 3'PFS UAC (mixed) RNA 1: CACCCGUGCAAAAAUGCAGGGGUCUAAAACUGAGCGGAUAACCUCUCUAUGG RNA 2: GGGAAUGGAUCCACAUCUACGAAUUCACACCAUAGAGAGGUUAUCCGCUCAUACAGAUCGGAAGAGCACACGU | 7.59 |
| target 1 MT 5'PFS CUC 3'PFS ACG (mixed) RNA 1: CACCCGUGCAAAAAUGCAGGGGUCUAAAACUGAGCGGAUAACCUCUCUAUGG RNA 2: GGGAAUGGAUCCACAUCUACGAAUUCCUCCCAUAGAGAGGUUAUCCGCUCAACGAGAUCGGAAGAGCACACGU | 7.14 |

Then there is this binder:
Quick one: pKd of target 1 C2A,U11C (mixed) RNA 1: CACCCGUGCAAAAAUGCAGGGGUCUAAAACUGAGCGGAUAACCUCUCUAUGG RNA 2: GGGAAUGGAUCCACAUCUACGAAUUCGUACCAUAGAGAGGCUAUCCGCUAACCGAGAUCGGAAGAGCACACGU ?
8.02
